# growth inhibition annotations
Test: NCI Yeast Anticancer Drug Screen. Data for the rad52 strain (AID 147);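 note: 0% = growth of vehicle-treated control cultures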
Conditions: S. cerevisiae rad52 mutant growth inhibition; at 33.0 µM; hits give high values
Procedure: Growth inhibition of yeast strains with defined genetic alterations is measured as a screen for potential anti-cancer activity. Selected strains with alterations in DNA damage repair or cell cycle control were exposed to compounds and growth inhibition was measured relative to vehicle treated controls. The strain used in this assay is rad52
This is part of a sample that, as a whole, favours compounds with a hit. Of some 79,000 tested, about 15% had one in any assay.
The response must be a number in % with no trailing unit.

Here is how some compounds turned out for growth inhibition.
>  <compound>
O=[N+]([O-])c1ccc2c(c1)C(N1CCN(CCO)CC1)Cc1ccc(F)cc1S2 (stereo not given)

>  <unitLabel>
%

>  <growth inhibition>
-2

$$$$
>  <compound>
CCC(=O)OCCn1c2nc(=O)[nH]c(=O)c-2nc2cc(C)c(C)cc21

>  <unitLabel>
%

>  <growth inhibition>
0

$$$$
>  <compound>
CCNc1nnc(CSc2nc(-c3ccccc3)c(-c3ccccc3)[nH]2)s1

>  <unitLabel>
%

>  <growth inhibition>
86

$$$$
>  <compound>
O=[n+]1c2ccc(Cl)cc2n([O-])c2ccc(Cl)cc21

>  <unitLabel>
%

>  <growth inhibition>
44

$$$$
>  <compound>
[N-]=N[N+]#I1OC(C(F)(F)F)(C(F)(F)F)c2ccccc21

>  <unitLabel>
%

>  <growth inhibition>
99

$$$$
>  <compound>
c1ccc2c(c1)c1ncccc1c1nccnc21

>  <unitLabel>
%

>  <growth inhibition>
48

$$$$
>  <compound>
Cn1c2ccccc2c(=O)c2cc(NC(=O)CCCCC(=O)Nc3ccc4c(c3)c(=O)c3ccccc3n4C)ccc21

>  <unitLabel>
%

>  <growth inhibition>
76

$$$$
>  <compound>
O=C1c2ccccc2-c2nc3ccccc3nc21

>  <unitLabel>
%

>  <growth inhibition>
90

$$$$
>  <compound>
O=C(O)C1CCCCC1c1c2ccc(=O)c(O)c-2oc2c(O)c(O)ccc12 (stereo not given)

>  <unitLabel>
%

>  <growth inhibition>
24

$$$$

For CCC#CCCCOC(=O)c1cc([N+](=O)[O-])cc([N+](=O)[O-])c1 , what is its reported growth inhibition?
81

###

experiment: NCI Yeast Anticancer Drug Screen. Data for the wt1 strain (AID 149);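 note: 0% = growth of vehicle-treated wt1 cultures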; conditions: S. cerevisiae wt1 strain (SPY 50644) growth inhibition; at 33.0 µM; hits give high values
About 79,000 compounds went through this panel and 15% of them were active in at least one assay; those are over-represented in the sample as a whole.
Label Condition met when growth inhibition >= 30%; otherwise Condition not met.

Look over these answered cases.
>  <smilesRepr>
CCCCCCCCCCNC(=O)OCC

>  <assignedLabel>
Condition not met

$$$$
>  <smilesRepr>
N/C(=N\OC(=O)NC(Cl)=C(Cl)Cl)c1cc(C(F)(F)F)cc(C(F)(F)F)c1

>  <assignedLabel>
Condition met

$$$$
>  <smilesRepr>
Cc1cc(CO)c(O)c(CNCc2cc(C)cc(CO)c2O)c1

>  <assignedLabel>
Condition met

$$$$
>  <smilesRepr>
O=C(CCCN1CCC2(CC1)CC(=O)N(N1CCCCCC1)C2=O)c1ccc(F)cc1

>  <assignedLabel>
Condition met

$$$$
>  <smilesRepr>
BrCC[P+](c1ccccc1)(c1ccccc1)c1ccccc1

>  <assignedLabel>
Condition met

$$$$

Dear colleague, could you confirm whether CC(C)/C(Cl)=N\OC(=O)Nc1cccc(Cl)c1 has growth inhibition at or above 30%?
Condition not met
